Ref: ChEMBL document CHEMBL1146655

- TEST_DESCRIPTION: Dissociation constant was evaluated
- Assay type: physicochemical
MEASURED_QUANTITY: pKa

Examples from the recorded data:
INSERT INTO assay_data (compound, reading) VALUES
  ('Cc1ccc(NS(=O)(=O)Cc2ccc(F)cc2Cl)c(=O)n1CC(=O)NCC1CCc2n[nH]cc2C1 (centres undefined)', 4),
  ('Cc1ccc(NS(=O)(=O)Cc2cccc(C(F)(F)F)c2)c(=O)n1CC(=O)NC1CCc2nc(N)sc2C1 (centres undefined)', 6.1),
  ('CCCS(=O)(=O)Nc1ccc(C)n(CC(=O)NCC2CCc3nc(N)sc3C2)c1=O (centres undefined)', 6.5);

[1] Cc1ccc(CS(=O)(=O)Nc2ccc(C)n(CC(=O)NC3CCc4nc(N)sc4C3)c2=O)cc1 (centres undefined)
[2] Cc1ccc(CS(=O)(=O)Nc2ccc(C)n(CC(=O)NCC3CCc4n[nH]cc4C3)c2=O)cc1 (centres undefined)
// query Among 1 and 2 , whose measured pKa is the smaller figure? Lab note: record the label of whichever item you select.
// result 2
(2: 4, 1: 6.1)

[I] CCCCS(=O)(=O)Nc1ccc(C)n(CC(=O)NC2CCc3nc(N)sc3C2)c1=O (centres undefined)
[II] Cc1ccc(NS(=O)(=O)Cc2ccccc2)c(=O)n1CC(=O)NC1CCc2c(sc(=N)n2N)C1 (centres undefined)
// query # min-compare on pKa between I and II # respond with the chosen item's label
// result II

[P] Cc1ccc(NS(=O)(=O)Cc2ccccc2)c(=O)n1CC(=O)N[C@H]1CCc2nc(N)sc2C1
[Q] Cc1ccc(NS(=O)(=O)Cc2ccc(F)cc2)c(=O)n1CC(=O)NC1CCc2c(sc(=N)n2N)C1 (centres undefined)
// query Which numeric pKa is bigger, that of P or that of Q ? // respond with label for picked entry
// result P
(P: 6.1, Q: 3.17)

----------
- ASSAYED_SYSTEM: Serine protease 1 (Bos taurus, UniProt P00760)
pKi: −log10 of the molar value.
MEASURED_QUANTITY: pKi

Worked examples follow.
INSERT INTO assay_data (compound, measured_quantity, reading) VALUES
  ('Cc1ccc(NS(=O)(=O)Cc2ccccc2)c(=O)n1CC(=O)NC1CCc2c(sc(=N)n2N)C1 (stereo not drawn)', 'pKi', 5.57),
  ('Cc1ccc(CS(=O)(=O)Nc2ccc(C)n(CC(=O)NC3CCc4nc(N)sc4C3)c2=O)cc1 (stereo not drawn)', 'pKi', 3.61);

[P] Cc1ccc(NS(=O)(=O)Cc2ccccc2)c(=O)n1CC(=O)N[C@@H]1CCc2nc(N)sc2C1
[Q] Cc1ccc(NS(=O)(=O)Cc2ccc(F)cc2)c(=O)n1CC(=O)NC1CCc2c(sc(=N)n2N)C1 (stereo not drawn)
// query Between the entries labeled P and Q , whose measured pKi is lower? In your reply, give the label of the chosen option.
// result P

----------
Entries with their measured Ki, system UniProt P00734:
MEASURED_QUANTITY: Ki (nM)

INSERT INTO results (molecule, units_of_measure, reading) VALUES
  ('Cc1ccc(NS(=O)(=O)Cc2ccccc2)c(=O)n1CC(=O)N[C@@H]1CCc2nc(N)sc2C1', 'nM', 71),
  ('Cc1ccc(NS(=O)(=O)Cc2ccc(F)cc2)c(=O)n1CC(=O)N[C@@H]1CCc2nc(N)sc2C1', 'nM', 77);

[A] Cc1ccc(NS(=O)(=O)Cc2ccc(F)cc2)c(=O)n1CC(=O)NC1CCc2nc(N)sc2C1 (stereo unspecified)
[B] Cc1ccc(NS(=O)(=O)Cc2cccc(C(F)(F)F)c2)c(=O)n1CC(=O)NCC1CCc2n[nH]cc2C1 (stereo unspecified)
[C] CCCCS(=O)(=O)Nc1ccc(C)n(CC(=O)NC2CCc3nc(N)sc3C2)c1=O (stereo unspecified)
[D] Cc1ccc(NS(=O)(=O)Cc2ccc(F)cc2)c(=O)n1CC(=O)NCC1CCc2n[nH]cc2C1 (stereo unspecified)
// query Rank order required: Ki, descending. API: response body holds the labels in the requested order.
// result C, B, D, A

----------
- TEST_DESCRIPTION: Dissociation constant was evaluated
- Assay type: physicochemical
MEASURED_QUANTITY: pKa

INSERT INTO results (compound, reading) VALUES
  ('Cc1ccc(NS(=O)(=O)Cc2ccc(F)cc2)c(=O)n1CC(=O)N[C@H]1CCc2nc(N)sc2C1', 6.1),
  ('Cc1ccc(NS(=O)(=O)Cc2cccc(C(F)(F)F)c2)c(=O)n1CC(=O)NCC1CCc2n[nH]cc2C1 (centres undefined)', 4);

[I] Cc1ccc(NS(=O)(=O)Cc2ccc(F)cc2Cl)c(=O)n1CC(=O)NC1CCc2nc(N)sc2C1 (centres undefined)
[II] Cc1ccc(NS(=O)(=O)Cc2ccc(F)cc2)c(=O)n1CC(=O)NCC1CCc2n[nH]cc2C1 (centres undefined)
// query Exercise: compare I and II ; which one has the greater pKa? Answer by quoting the chosen item's label.
// result I

----------
- TEST_DESCRIPTION: Selectivity for inhibition of thrombin over trypsin.
MEASURED_QUANTITY: Selectivity

INSERT INTO results (compound, reading) VALUES
  ('Cc1ccc(NS(=O)(=O)Cc2ccccc2)c(=O)n1CC(=O)N[C@@H]1CCc2nc(N)sc2C1', 3700),
  ('Cc1ccc(CS(=O)(=O)Nc2ccc(C)n(CC(=O)NC3CCc4nc(N)sc4C3)c2=O)cc1 (configuration not stated)', 2460);

[I] Cc1ccc(NS(=O)(=O)Cc2ccccc2)c(=O)n1CC(=O)N[C@H]1CCc2nc(N)sc2C1
[II] Cc1ccc(NS(=O)(=O)Cc2ccccc2)c(=O)n1CC(=O)NC1CCc2c(sc(=N)n2N)C1 (configuration not stated)
// query Sort I and II by Selectivity descending and give the first. # reply format: chosen label
// result I

[I] CCCS(=O)(=O)Nc1ccc(C)n(CC(=O)NC2CCc3nc(N)sc3C2)c1=O (configuration not stated)
[II] Cc1ccc(NS(=O)(=O)Cc2ccccc2)c(=O)n1CC(=O)NC1CCc2nc(N)sc2C1 (configuration not stated)
[III] Cc1ccc(NS(=O)(=O)Cc2ccc(F)cc2)c(=O)n1CC(=O)NC1CCc2c(sc(=N)n2N)C1 (configuration not stated)
[IV] Cc1ccc(NS(=O)(=O)Cc2cccc(C(F)(F)F)c2)c(=O)n1CC(=O)NCC1CCc2n[nH]cc2C1 (configuration not stated)
// query // sort entries: Selectivity, high to low Use the labels to give the requested order.
// result II, IV, III, I

[A] Cc1ccc(NS(=O)(=O)Cc2ccc(F)cc2)c(=O)n1CC(=O)NCC1CCc2n[nH]cc2C1 (configuration not stated)
[B] CCCCS(=O)(=O)Nc1ccc(C)n(CC(=O)NC2CCc3nc(N)sc3C2)c1=O (configuration not stated)
// query Smaller Selectivity value, A vs B ? Answer = label.
// result B
(B: 38, A: 1720)

----------
- ASSAYED_SYSTEM: Serine protease 1 (Bos taurus)
- Sequence (P00760 whole entry): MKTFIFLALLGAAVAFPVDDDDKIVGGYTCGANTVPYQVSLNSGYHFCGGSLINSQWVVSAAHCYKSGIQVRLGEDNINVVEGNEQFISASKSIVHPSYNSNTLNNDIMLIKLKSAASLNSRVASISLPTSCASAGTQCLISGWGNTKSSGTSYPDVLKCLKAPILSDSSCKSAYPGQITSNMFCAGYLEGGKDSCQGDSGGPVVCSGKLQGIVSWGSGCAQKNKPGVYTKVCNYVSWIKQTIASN
- TEST_DESCRIPTION: In vitro inhibition of bovine trypsin.
Catalogue of Ki readings, one per entry.

INSERT INTO results (molecule, measured_quantity, reading) VALUES
  ('Cc1ccc(NS(=O)(=O)Cc2ccc(F)cc2Cl)c(=O)n1CC(=O)NCC1CCc2n[nH]cc2C1 (centres undefined)', 'Ki', '> 300 µM'),
  ('Cc1ccc(NS(=O)(=O)Cc2ccccc2)c(=O)n1CC(=O)NCC1CCc2n[nH]cc2C1 (centres undefined)', 'Ki', '> 500 µM'),
  ('Cc1ccc(NS(=O)(=O)Cc2ccc(F)cc2)c(=O)n1CC(=O)NC1CCc2nc(N)sc2C1 (centres undefined)', 'Ki', '> 800 µM');

Now look at this entry.
In plain terms, Cc1ccc(NS(=O)(=O)Cc2ccc(F)cc2)c(=O)n1CC(=O)N[C@@H]1CCc2nc(N)sc2C1 has a documented Ki of > 700 µM

----------
- TEST_DESCRIPTION: Selectivity for inhibition of thrombin over trypsin.
Selectivity values for the molecules below.

Recorded result, Cc1ccc(NS(=O)(=O)Cc2ccc(F)cc2)c(=O)n1CC(=O)N[C@H]1CCc2nc(N)sc2C1 , Selectivity: > 123

Selectivity recorded for this molecule, Cc1ccc(NS(=O)(=O)Cc2cccc(C(F)(F)F)c2)c(=O)n1CC(=O)NC1CCc2nc(N)sc2C1 (configuration not stated) , is > 300

Kindly note the recorded Selectivity for Cc1ccc(CS(=O)(=O)Nc2ccc(C)n(CC(=O)NCC3CCc4n[nH]cc4C3)c2=O)cc1 (configuration not stated) , which is > 2900

Selectivity reading for Cc1ccc(NS(=O)(=O)Cc2ccc(F)cc2Cl)c(=O)n1CC(=O)NCC1CCc2n[nH]cc2C1 (configuration not stated) : > 1910

The reported value for Cc1ccc(NS(=O)(=O)Cc2ccc(F)cc2)c(=O)n1CC(=O)N[C@@H]1CCc2nc(N)sc2C1 in terms of Selectivity is > 9090

The value of Selectivity measured for the molecule Cc1ccc(NS(=O)(=O)Cc2ccccc2)c(=O)n1CC(=O)NCC1CCc2n[nH]cc2C1 (configuration not stated) turned out to be > 2940

// sample Cc1ccc(NS(=O)(=O)Cc2ccc(F)cc2)c(=O)n1CC(=O)NC1CCc2nc(N)sc2C1 (configuration not stated) , its Selectivity was > 8000
